target: PD-1/PD-L1 interaction (PD-1-Ig / PD-L1-His) (Homo sapiens (Human)); assay: PD-1/PD-L1 Homogenous Time-Resolved Fluorescence (HTRF) binding assay; details: PD-L1-His 10 nM final, PD-1-Ig 20 nM final
I'd appreciate it if you could supply IC50 values for the items below.
Answers are plain numbers, in nM.

A selection of reference data follows.
>>> endpoint_result("Cc1c(COc2cc(O)c(CNC3(C)CCOC3=O)cc2Cl)cccc1-c1cccc(OCC2CCCN(C)C2)c1Cl (centres unmarked) [Compound 1029]")
132
>>> endpoint_result("Cc1c(COc2cc(OCc3cncc(C#N)c3)c(CNC3(C)CC(C)(C)OC3=O)cc2Cl)cccc1-c1cccc(OCC2CCCN(C)C2)c1Cl (centres unmarked) [Compound 1009]")
3
>>> endpoint_result("Cc1c(COc2cc(OCc3cncc(C#N)c3)c(CN(C)C3CC(C)OC3=O)cc2Cl)cccc1-c1cccc(COc2cc(OCc3cncc(C#N)c3)c(CN(C)C3CC(C)OC3=O)cc2Cl)c1C (centres unmarked) [Compound 1053]")
1470
>>> endpoint_result("Cc1c(COc2cc(OCc3cncc(C#N)c3)c(CN[C@H]3COC(=O)C3)cc2Cl)cccc1-c1cccc(OCC2CCCN(C)C2)c1Cl (some centres unmarked) [Compound 1003]")
2

// below: IC50 requested for another compound
Entry Cc1c(COc2cc(OCc3cncc(C#N)c3)c(CNC3CC(C)OC3=O)cc2Cl)cccc1-c1cccc(COc2cc(OCc3cncc(C#N)c3)c(CNC3CC(C)OC3=O)cc2Cl)c1C (centres unmarked) [Compound 1024] has what IC50?
21.4

----------
Target: PD-1/PD-L1 interaction (PD-1-Ig / PD-L1-His) (Homo sapiens (Human))
Assay: PD-1/PD-L1 Homogenous Time-Resolved Fluorescence (HTRF) binding assay
Conditions: PD-L1-His 10 nM final, PD-1-Ig 20 nM final
Excerpt: The ability of the compounds of the invention to bind to PD-L1 was investigated using a PD-1/PD-L1 Homogenous Time-Resolved Fluorescence (HTRF) binding assay. The interaction of PD-1 and PD-L1 can be assessed using soluble, purified preparations of the extracellular domains of the two proteins. […] Homogenous Time-Resolved Fluorescence (HTRF) Assays of Binding of Soluble PD-1 to Soluble PD-L1. […]
Would you kindly list log10(IC50) for each of these molecules?
Values are log10 of IC50 in nM.

Previously resolved entries follow.
>>> endpoint_result("COc1cc(OCc2cccc(-c3cccc(OCC4CCCN(C)C4)c3Cl)c2C)c(Cl)cc1CNC1CC(C)(C)OC1=O (stereo not drawn)")
0.87
>>> endpoint_result("C=C1COc2cc(OCc3cccc(-c4cccc(OCC5CCCN(C)C5)c4Cl)c3C)c(Cl)cc2CN(C2CCOC2=O)C1 (stereo not drawn)")
3.58
>>> endpoint_result("COc1cc(OCc2cccc(-c3cccc(OCC4CCCN(C)C4)c3Cl)c2C)c(Cl)cc1CNC1CCC(=O)NC1=O (stereo not drawn)")
0.49
>>> endpoint_result("Cc1c(COc2cc3c(cc2Cl)CN(C2CCOC2=O)C(=O)CO3)cccc1-c1cccc(OCC2CCCN(C)C2)c1Cl (stereo not drawn)")
2.59

Query (molecule): Cc1c(COc2cc(OCc3cncc(C#N)c3)c(CNC3(C)CCOC3=O)cc2Cl)cccc1-c1cccc(OCC2CCCN(C)C2)c1Cl (stereo not drawn) ; field requested: log10(IC50)
0.23

----------
biological target: PD-1/PD-L1 interaction (PD-1-Ig / PD-L1-His) (Homo sapiens (Human), UniProt Q9NZQ7); assay: PD-1/PD-L1 Homogenous Time-Resolved Fluorescence (HTRF) binding assay; details: PD-L1-His 10 nM final, PD-1-Ig 20 nM final
Sequence (Q9NZQ7 18-239): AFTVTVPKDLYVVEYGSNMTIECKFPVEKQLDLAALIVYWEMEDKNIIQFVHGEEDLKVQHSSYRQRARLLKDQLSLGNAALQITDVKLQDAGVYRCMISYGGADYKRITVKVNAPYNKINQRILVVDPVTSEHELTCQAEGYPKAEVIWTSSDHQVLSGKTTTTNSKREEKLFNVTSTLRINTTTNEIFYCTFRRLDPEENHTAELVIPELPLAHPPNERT
measurement_label: IC50 (nM)
Numbers only, in nM.

Check out these entries, answers already filled in.
>>> endpoint_result("COc1cc(OCc2cccc(-c3cccc(OCC4CCCN(C)C4)c3Cl)c2C)c(Cl)cc1CNC1(C)CCOC1=O (stereo not drawn) [Compound 1036]")
7.3
>>> endpoint_result("Cc1c(COc2cc(OCc3cncc(C#N)c3)c(CNC3CCOC3=O)cc2Cl)cccc1-c1cccc(COc2cc(OCc3cncc(C#N)c3)c(CNC3CCOC3=O)cc2Cl)c1C (stereo not drawn) [Compound 1018]")
15

Then this compound:
For N#Cc1cncc(COc2cc(OCc3cccc(-c4cccc(COc5cc(OCc6cncc(C#N)c6)c(CN[C@H]6CCOC6=O)cc5Cl)c4Cl)c3Cl)c(Cl)cc2CN[C@H]2CCOC2=O)c1 [Compound 1026] , what is its reported IC50?
10.4
